Target: RARβ (Homo sapiens)
Sequence (P10826 183-417 limits assumed): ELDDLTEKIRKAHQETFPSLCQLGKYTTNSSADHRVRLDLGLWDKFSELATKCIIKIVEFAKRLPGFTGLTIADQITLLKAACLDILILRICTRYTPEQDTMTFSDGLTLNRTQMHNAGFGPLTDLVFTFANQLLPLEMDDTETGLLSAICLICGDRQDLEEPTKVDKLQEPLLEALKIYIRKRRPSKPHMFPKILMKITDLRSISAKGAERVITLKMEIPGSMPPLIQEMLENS
Assay: chimeric receptor transactivation assay, RARβ
Conditions: chimeric receptor transactivation; read-out: RAR Trans. EC50 β
pEC50: −log10 of the molar value.
property: pEC50

# compound, pEC50
data = [
    ("CCOc1c(\\C(=C(F)/C=C/C(C)=C/C(=O)O)C(C)C)cc2c(c1Br)C(C)(C)CC=C2C(C)C", 8.70),
    ("COc1cc2c(cc1\\C(C)=C(F)/C=C/C(C)=C/C(=O)O)C(C(C)C)=CC(C)(C)O2", 4.33),
    ("CC/C(=C(F)/C=C/C(C)=C/C(=O)O)c1cc2c(cc1OC)OC(C)(C)C=C2C(C)C", 7.19),
    ("CCOc1cc2c(cc1\\C(C)=C/C=C/C(C)=C/C(=O)O)C(C(C)(C)C)=CCC2(C)C", 7.30),
    ("CCOc1c(\\C(CC)=C(F)/C=C/C(C)=C/C(=O)O)cc2c(c1Br)C(C)(C)CC=C2C(C)CC (stereo not shown)", 7.85),
    ("COc1c(\\C(C)=C/C=C/C(C)=C/C(=O)O)cc2c(c1Cl)OC(C)(C)C=C2C(C)C", 6.88),
]

a: CC/C(=C(F)/C=C/C(C)=C/C(=O)O)c1cc2c(cc1OC)OC(C)(C)C=C2C
b: COc1cc2c(cc1\C(C)=C/C=C/C(C)=C/C(=O)O)C(C(C)C)=CC(C)(C)O2
Hey, between a and b which has a smaller measured pEC50? // respond with label for picked entry a
(a: 6.25, b: 7.24)

A: CCCOc1cc2c(cc1\C(C)=C(F)/C=C/C(C)=C/C(=O)O)C(c1ccccc1)=CC(C)(C)O2
B: CCOc1c(\C(CC)=C(F)/C=C/C(C)=C/C(=O)O)cc2c(c1Cl)C(C)(C)CC=C2C(C)C
Which has the higher pEC50, A or B ? // respond with label for picked entry B
